Assay: soluble fraction after stress (log2 fold change); higher = more stays soluble; pooled small domains, quantitative proteomics;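 also: 20 min heating vs room temperature control held 20 min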
Settings: stress: 75 degC
# key: entry, value: soluble fraction (log2)
assayReadout: soluble fraction (log2)

> print(dat)
                              sequencechain             assayreadout  resultvalue
1  HMSLYGGYEIDIIKEEVVDAGIKLLRRRVIVADQRGISVYEGKPTFASDDQVLIKEGQYQIDKLG  soluble fraction (log2)        -2.46
2  HMPEITPAMIKALLSSLSEELAFASVTKVYAVLHNLFKAALLDDTIDRNPMDKVPRPRKSKDAAL  soluble fraction (log2)       -0.576
3  HMFNGDPTTRESILASARAEIDQYGIIGLRLSAVAEKAQVSVPLIYKYFEDRDGLLAVVLGDW  soluble fraction (log2)        -1.21
4  HMNKSGVVLIRVTVDASGRVTSAAYEPKGSTTSDVELVAEARKAALRTRFTESRTVIEGGVITYIFKL  soluble fraction (log2)        -2.59
5  HMDTNKMLIVNSISNGMKRLQELQDPQLAEIQKTFSGLDEQKATSAQLAQINNIINNRIAEIEG  soluble fraction (log2)         0.23
6  HMNTEEVGSYLKKLRLEHSFTQKELAGKLYITHQAVSNWEKGKALPDIGILSQLGDIYGISIDNLLLK  soluble fraction (log2)        -2.04
7  HMDYINALTTAGITDAKVIVTAPFDVSGTAALTGIYKAYEDITGSSLNEIAKAVGVEELITTGNLA  soluble fraction (log2)         0.23
8  HMDEVPMPPEYQYLRVGSRVHHATFGWGKVTRLSQPWPQTRAEVFFENIGPKKLVLAHAHLTMD  soluble fraction (log2)        -3.26

* * *

Assay: soluble fraction after stress (log2 fold change); higher = more stays soluble; pooled small domains, quantitative proteomics
Conditions: stress: 75 degC
Classes (soluble fraction (log2)): 0: < -0.7; 1: ≥ -0.7 and < -0.04; 2: ≥ -0.04

> print(dat)
                               sequencechain  assignedlabel
 1  HMQINLSEWVLAAREYAGPEMTQEKLAEHLGRTKANVSAMENGRSKPSFEQMMEIHRVTGYPLPYQ              1
 2  HMQGAARGMLFAQAQRWMTKFRIDPQQADRITQAALDPAQTDAILREVRRGYGPSAERALRGIIRRARRA              0
 3  HMESRLQAAIALRKAGEHEQSREALKILADEPALRAQALLNIAWSFDNQGHERDAEGYYLAAIE              1
 4  HMSKQLGFKIKTARRKLNISQGDLSKKLEISPSYLNLIESGKRKVSTDLLMKASEILNLDLKKL              0
 5  HMAILDTALDVLSMNLKDNYTSFQILRQAAIAGKIAFNLTEKNPLGGVIEVELTGDDLETWIEAATW              2
 6  HMKSIRIPFILTEGPNSQKITIDIDSDEEFRIGDVFDEDDKLWSINQILISGDRKAKMAIASEVTSISALR              0
 7  HMNMVEESVKKSSQWAVFEPNTISTWVKIQAMIENYLYQKWKEGALAGAKPEHAFFVKVGLGETM              2
 8  HMSNVKVYPNPTSGKLTIDAENYKGVEVYDTSGRLIVKSELRTIDLEEQSKGLYLLKVNANGTTQEFKVFK              1
 9  HMKGPLKDLGPDPVTGKSILVKDGKFGTYVTDGETNATLRRGDIVELLTLERGMELLAEKRARATQ              2
10  HMGNVGEAIEALVKGFQEGNQFQTLLGVTGSGKTFTMANVIAALNKPTLIISHNKTLAAQLYLSLIHIS              2
11  HMEKLNYSISNEEQGQRIDKYLSLMIEGKSRSFIQGLIDDKKVMANGKVIKSNYKLKNNDEITVEMPDPI              2
12  HMKVDRLVSMILILLEQQRVGAQELADRFEVSVRTIYRDMEAINQAGIPVRSTSGVGGGFEIM              1
13  HMAPRDKADKYVAAGIAEELVPILQKVGYYLVTDLKDVKAQKIQQQIGEIIKKYKLDIEKPSVQDIEGWN              1
14  HMRKSLGEIVFDRMERAIKSGAYSPDERLPTELDLAAEFEVSRPVIRDALKRLRERGLIYSRQGAGSFVRA              0
15  HMDQTIFFGQQKAINNLSTDAGLSATELDEYLKKRYKRPLYQLTQAEGAEIIKGFQDGALSRSSILDYTK              2
16  HMLSDEDMMELAIIENLQRENLNPIEEARAYESLIDKGFTHTEIADKMGKSRPYISNSIRLLSL              2
17  HMEFNDLNDDEKAILHIMYNTGEKMTTALAARITNRGRNFASKLLKSLVKKEILEWHGTSKQDRNQYYTLA              1
18  HMAMDYTVVHSDRRTIAIQIQRDGRVVVRAPYAATAEDIRRVVDSHRDWVEKTVRRQQEQLAAS              0
19  HMQEKQIIDGREFYIHQVERGITLYSIAKQYNVKVADIQAENPFLEAGLQPGQTLKIPLDKVETVQEIK              1
20  HMSEYVIVTGEKVNLRVGPGMDYEIAGQVVKGDKLELLASEGDWSKVKTGSGSIYYISSSLVQKA              1
21  HMDEPSITYGKVKVQTSLNVRQGPGTQYARIGSLGPNVRIQILGQEGQWYKIKYGNLQGYVHSDYVELEK              2
22  HMNAKNPRALAIQYVFKMQMGNFLHAKTDNQQQEQERIMTLFNEENKNTILPRWGKELLSYINRN              0
23  HMIQNTGMMESGDSIRGMALDAGFPLLMVVGYRGWTRKGNTPDSAAVYTEPFLNAFRLNYYLVEHDE              2
24  HMIPDPPALGSNLHRERRRQQLSLDALAAASGVSKAMLSQIEADKVNPTIATMWKIAHALNIDFETLLRGE              0
25  HMTDEYYSYIGKTGTTITVLRPAGIAEVEGERLNVVSEGEFIRKGAAILVKEVEGARILVEEVN              1
26  HMRSSNEAVSQRRDKILDYISATGRTSTEIVAKEFGVSVMTARRDLLYLMEKRLISKSSSGLFKVDNN              0
27  HMEGMSIYVTVNGDMVHLTGKMSYVFVDVFEHIDFDLSKPQGSGIVTKLNGRDAQYMEEIRSGDMIEIYWR              0
28  HMDSTLTNEIYNELYRAITHQELKPGQNLTLTMLKKQFNVSHTPIREALTRLSADGLVTYHPNKGMKVT              1
29  HMRGFGYVRRLPSKRYQASYAGPDLQRHVAPTTFTTKADAESWLGAERKVVESGSWRPPAVREAEARLS              2
30  HMKHSEAIELGKRMLSQALQDVSLVLKKIPEERLQAVAAELNLKTPDELFEKIGLGERLAALVARRLLP              0
31  HMKKPKTVLSEEQKEFIINQAQDGVSAYDIARILFPSVNVTNLSKEVIDVAEFIRDTDIKLLADSE              2
32  HMSMRIDTNTLNYYVQNAQISLSVLRTKINNLDQFLSGEKQPTFNQLSEIAKKINVPTGLLLLNKS              0
33  HMEEQIEVPVQINGKVRSKLTVAPETDEKQIEALALADPKVQQQLEGKRVLKVIVAQKRLVNIVA              1
